Measured inhibition at 0.01 µM, listed per entry for reference.
# ASSAY INFO: Antiproliferative activity against VEGF-stimulated HUVEC cells assessed as reduction in cell viability at 10 nM preincubated for 1 hr followed by addition of VEGF measured after 72 hrs by MTT assay
# Type: functional
# EXPERIMENTAL CONTEXT: Homo sapiens
ENDPOINT NAME: inhibition at 0.01 µM (%)

[
  {
    "MOLECULE": "Cc1cc(C(=O)Nc2cccc(C(=O)c3ccc4c(/C=C/c5ccccc5)n[nH]c4c3)c2)oc(=O)c1",
    "ENDPOINT NAME": "inhibition at 0.01 µM",
    "ASSAY RESULT": 64
  },
  {
    "MOLECULE": "CN(C)C(=S)SCC(=O)Nc1cccc(Nc2ccc3c(/C=C/c4ccccc4)n[nH]c3c2)c1",
    "ENDPOINT NAME": "inhibition at 0.01 µM",
    "ASSAY RESULT": 32
  },
  {
    "MOLECULE": "Cc1ccc(C2(C(=O)Nc3cccc(Oc4ccc5c(/C=C/c6ccccc6)n[nH]c5c4)c3)CC2)cc1",
    "ENDPOINT NAME": "inhibition at 0.01 µM",
    "ASSAY RESULT": 4
  },
  {
    "MOLECULE": "O=C(/C=C/C1C[C@H]2C=C[C@H]1C2)Nc1cccc(Oc2ccc3c(/C=C/c4ccccc4)n[nH]c3c2)c1 (some centres not stated)",
    "ENDPOINT NAME": "inhibition at 0.01 µM",
    "ASSAY RESULT": 48
  },
  {
    "MOLECULE": "CN1CCC=C(C(=O)Nc2cccc(C(=O)c3ccc4c(/C=C/c5ccccc5)n[nH]c4c3)c2)C1",
    "ENDPOINT NAME": "inhibition at 0.01 µM",
    "ASSAY RESULT": 20
  },
  {
    "MOLECULE": "O=C(Cc1cccnc1)Nc1cccc(Oc2ccc3c(/C=C/c4ccccc4)n[nH]c3c2)c1",
    "ENDPOINT NAME": "inhibition at 0.01 µM",
    "ASSAY RESULT": 76
  },
  {
    "MOLECULE": "COC1CCCC(C(=O)Nc2cccc(C(=O)c3ccc4c(/C=C/c5ccccc5)n[nH]c4c3)c2)C1 (configuration not stated)",
    "ENDPOINT NAME": "inhibition at 0.01 µM",
    "ASSAY RESULT": 30
  },
  {
    "MOLECULE": "CC(C)CC(O)C(=O)Nc1cccc(Oc2ccc3c(/C=C/c4ccccc4)n[nH]c3c2)c1 (configuration not stated)",
    "ENDPOINT NAME": "inhibition at 0.01 µM",
    "ASSAY RESULT": 69
  },
  {
    "MOLECULE": "O=C(Cc1ccccc1)C(=O)Nc1cccc(C(=O)c2ccc3c(/C=C/c4ccccc4)n[nH]c3c2)c1",
    "ENDPOINT NAME": "inhibition at 0.01 µM",
    "ASSAY RESULT": -37
  },
  {
    "MOLECULE": "Cc1ccc(CCC(=O)Nc2cccc(Nc3ccc4c(/C=C/c5ccccc5)n[nH]c4c3)c2)cc1",
    "ENDPOINT NAME": "inhibition at 0.01 µM",
    "ASSAY RESULT": 29
  },
  {
    "MOLECULE": "O=C(Cc1c(F)cccc1F)Nc1cccc(C(=O)c2ccc3c(/C=C/c4ccccc4)n[nH]c3c2)c1",
    "ENDPOINT NAME": "inhibition at 0.01 µM",
    "ASSAY RESULT": 81
  },
  {
    "MOLECULE": "CC(=O)N1CCCC1C(=O)Nc1cccc(Oc2ccc3c(/C=C/c4ccccc4)n[nH]c3c2)c1 (configuration not stated)",
    "ENDPOINT NAME": "inhibition at 0.01 µM",
    "ASSAY RESULT": 19
  },
  {
    "MOLECULE": "O=C(Nc1cccc(Nc2ccc3c(/C=C/c4ccccc4)n[nH]c3c2)c1)[C@H]1CCC[C@H]1O",
    "ENDPOINT NAME": "inhibition at 0.01 µM",
    "ASSAY RESULT": -4
  },
  {
    "MOLECULE": "CCCN(CCC)CC(=O)Nc1cccc(C(=O)c2ccc3c(/C=C/c4ccccc4)n[nH]c3c2)c1",
    "ENDPOINT NAME": "inhibition at 0.01 µM",
    "ASSAY RESULT": -2
  },
  {
    "MOLECULE": "O=C(c1cccc(NC(=O)C2C[C@H]3C=C[C@H]2C3)c1)c1ccc2c(/C=C/c3ccccc3)n[nH]c2c1 (some centres not stated)",
    "ENDPOINT NAME": "inhibition at 0.01 µM",
    "ASSAY RESULT": 44
  },
  {
    "MOLECULE": "O=C(Nc1cccc(Oc2ccc3c(/C=C/c4ccccc4)n[nH]c3c2)c1)C1CC2C=CCC(C2)C1 (configuration not stated)",
    "ENDPOINT NAME": "inhibition at 0.01 µM",
    "ASSAY RESULT": 17
  },
  {
    "MOLECULE": "CCCN(CCC)CC(=O)Nc1cccc(Oc2ccc3c(/C=C/c4ccccc4)n[nH]c3c2)c1",
    "ENDPOINT NAME": "inhibition at 0.01 µM",
    "ASSAY RESULT": 25
  }
]

Recorded values, source ChEMBL document CHEMBL3880421.
